- Study target: long form of human leptin receptor (hLEPR) on BAF/3 or H-49 (HEK-293) cells (human), P48357
- Sequence (P48357 22-1165): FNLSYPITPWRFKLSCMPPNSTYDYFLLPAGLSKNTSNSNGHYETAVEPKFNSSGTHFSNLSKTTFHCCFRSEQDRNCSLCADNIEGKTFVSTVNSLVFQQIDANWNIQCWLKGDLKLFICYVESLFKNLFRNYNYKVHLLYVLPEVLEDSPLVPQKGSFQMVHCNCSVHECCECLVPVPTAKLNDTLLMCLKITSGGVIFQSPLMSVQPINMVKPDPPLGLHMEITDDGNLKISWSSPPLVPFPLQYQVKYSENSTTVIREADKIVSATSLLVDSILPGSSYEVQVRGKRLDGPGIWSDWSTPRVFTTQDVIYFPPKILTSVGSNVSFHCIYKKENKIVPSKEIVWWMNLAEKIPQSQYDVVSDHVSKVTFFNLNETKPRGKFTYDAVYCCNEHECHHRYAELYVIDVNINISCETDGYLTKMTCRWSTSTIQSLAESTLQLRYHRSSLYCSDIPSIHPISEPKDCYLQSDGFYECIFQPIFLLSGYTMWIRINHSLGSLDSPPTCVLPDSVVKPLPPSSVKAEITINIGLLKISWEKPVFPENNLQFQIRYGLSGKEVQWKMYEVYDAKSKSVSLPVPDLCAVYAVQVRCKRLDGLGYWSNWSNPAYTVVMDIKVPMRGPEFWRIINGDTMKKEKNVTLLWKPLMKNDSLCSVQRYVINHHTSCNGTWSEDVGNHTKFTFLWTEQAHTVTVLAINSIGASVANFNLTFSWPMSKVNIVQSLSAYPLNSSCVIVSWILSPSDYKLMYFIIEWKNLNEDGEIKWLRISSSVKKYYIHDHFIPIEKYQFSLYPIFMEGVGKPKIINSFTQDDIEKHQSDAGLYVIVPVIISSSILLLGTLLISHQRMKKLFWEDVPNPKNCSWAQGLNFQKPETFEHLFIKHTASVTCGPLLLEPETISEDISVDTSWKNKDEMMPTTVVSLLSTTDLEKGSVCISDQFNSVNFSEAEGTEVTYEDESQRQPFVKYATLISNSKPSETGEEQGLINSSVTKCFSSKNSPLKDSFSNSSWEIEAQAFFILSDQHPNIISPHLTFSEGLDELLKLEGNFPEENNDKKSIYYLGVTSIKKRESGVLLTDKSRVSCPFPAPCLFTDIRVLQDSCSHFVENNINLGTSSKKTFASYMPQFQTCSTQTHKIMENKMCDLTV
- Procedure summary: cell-based or functional assay
Catalogue of Luciferase bioassay: fold increase in bioactivity as compared to the WT mouse leptin readings, one per entry.

Record excerpt, results attached:
# Binder, Endpoint value
records = [
    ("recombinant mouse leptin mutein H19 (D23G, T37A, G44D), agonist (ligand, mature) AVPIQKVQDDTKTLIKTIVTRINGISHTQSVSAKQRVAGLDFIPDLHPILSLSKMDQTLAVYQQVLTSLPSQNVLQIANDLENLRDLLHLLAFSKSCSLPQTSGLQKPESLDGVLEASLYSTEVVALSRLQGSLQDILQQLDVSPEC", "1.5 fold"),
    ("recombinant mouse leptin mutein H16 (D23G, G112S), agonist (ligand, mature) AVPIQKVQDDTKTLIKTIVTRINGISHTQSVSAKQRVTGLDFIPGLHPILSLSKMDQTLAVYQQVLTSLPSQNVLQIANDLENLRDLLHLLAFSKSCSLPQTSGLQKPESLDSVLEASLYSTEVVALSRLQGSLQDILQQLDVSPEC", "0.9 fold"),
    ("recombinant mouse leptin mutein H15 (D23G, L68M, S97F, S132Y), agonist, P41160 22-167 (ligand) AVPIQKVQDDTKTLIKTIVTRINGISHTQSVSAKQRVTGLDFIPGLHPILSLSKMDQTLAVYQQVLTSMPSQNVLQIANDLENLRDLLHLLAFSKSCFLPQTSGLQKPESLDGVLEASLYSTEVVALSRLQGYLQDILQQLDVSPEC", "0.8 fold"),
    ("recombinant mouse leptin mutein H22 (T12I), agonist, P41160 22-167 (ligand) AVPIQKVQDDTKILIKTIVTRINDISHTQSVSAKQRVTGLDFIPGLHPILSLSKMDQTLAVYQQVLTSLPSQNVLQIANDLENLRDLLHLLAFSKSCSLPQTSGLQKPESLDGVLEASLYSTEVVALSRLQGSLQDILQQLDVSPEC", "0.7 fold"),
    ("recombinant mouse leptin mutein H12 (S97Y), agonist, P41160 22-167 (ligand) AVPIQKVQDDTKTLIKTIVTRINDISHTQSVSAKQRVTGLDFIPGLHPILSLSKMDQTLAVYQQVLTSLPSQNVLQIANDLENLRDLLHLLAFSKSCYLPQTSGLQKPESLDGVLEASLYSTEVVALSRLQGSLQDILQQLDVSPEC", "0.7 fold"),
]

Moving on to another binder below.
Give the measured Luciferase bioassay: fold increase in bioactivity as compared to the WT mouse leptin of recombinant mouse leptin mutein H30 (D23H), agonist (ligand, mature) AVPIQKVQDDTKTLIKTIVTRINHISHTQSVSAKQRVTGLDFIPGLHPILSLSKMDQTLAVYQQVLTSLPSQNVLQIANDLENLRDLLHLLAFSKSCSLPQTSGLQKPESLDGVLEASLYSTEVVALSRLQGSLQDILQQLDVSPEC .
0.6 fold

// provenance: patent US20130133089A1
